// data source = ChEMBL document CHEMBL1150253

Recorded Activity values for a group of compounds are listed next.
- Tested on: Platelet
- assayMethodText: Inhibition of arachidonic acid-induced TxB2 formation in human platelet at 0.5 uM per 3 x 10^8 platelets by immunoassay
- Type: functional

compound	Activity
CCCOC(=O)c1ccc(Cl)cc1NC(=O)c1ccccc1Cl	62.56 ng
COc1ccc2c(c1)c(CC(=O)O)c(C)n2C(=O)c1ccc(Cl)cc1 [INDOMETHACIN]	3.09 ng
CCCOC(=O)c1ccc(Cl)cc1NC(=O)c1c(F)cccc1F	45.47 ng
COC(=O)c1ccc(Cl)cc1NC(=O)c1c(F)cccc1F	61.18 ng

* * *

- Tested on: Blood
- assayMethodText: Inhibition of arachidonic acid-induced platelet aggregation in human blood after 3 mins by turbidimetric assay
- Assay type: functional, tissue-based
- reportedConditions: 0.05 h
Classify: T when IC50 is strictly less than 5 µM; F when IC50 is not.

smilesString	class
CCCOC(=O)c1ccc(F)cc1NC(=O)c1ccccc1OC	F
CCCCNC(=O)c1ccc(Cl)cc1NC(=O)c1ccccc1F	T
CCCCOC(=O)c1ccc(Cl)cc1NC(=O)c1c(F)cccc1F	T
CCCOC(=O)c1ccc(C)cc1NC(=O)c1ccccc1F	T
CC(C)OC(=O)c1ccc(Cl)cc1NC(=O)c1c(F)cccc1F	F
CCOC(=O)c1ccc(F)cc1NC(=O)c1ccccc1C	F
CCOC(=O)c1ccc(Cl)cc1NC(=O)c1c(Cl)cccc1Cl	F
CCCCOC(=O)c1ccc(Cl)cc1NC(=O)c1ccccc1Br	F
CCCOC(=O)c1ccc(Cl)cc1NC(=O)c1ccccc1Cl	T
CCCOC(=O)c1ccc([N+](=O)[O-])cc1NC(=O)c1ccccc1OC	F
CCCCNC(=O)c1ccc(Cl)cc1NC(=O)c1ccccc1Cl	T
